From: patent US20050164903A1

Assay remarks: Surface tension and cmc, Kruss tensiometer K12
Assay type: physicochemical
Condition description: concentration 0.1%
Outcome measure: Surface tension (mN/m)
Use mN/m as the unit, but write only the number.

Query string: Return reported Surface tension; argument: CCCCCCCCCCCC[N+](C)(C)[O-] [Synthesis Example 19, N-Dimethyl Lauryl Amineoxide]
Result string: 29.59

Query string: Recorded Surface tension of CCCCCCCCCCCCOS(=O)(=O)[O-].[Na+] [SLS, sodium lauryl sulfate, reference compound] , please.
Result string: 25.19

Query string: Could you share which Surface tension value was measured for C[N+](C)(CCO)CCCCCC[N+](C)(C)CCO.[I-].[I-] [Synthesis Example 14, 1,6-[2-(N,N-dimethylamino)ethanol]hexane] ?
Result string: 70.04

Query string: Any idea what Surface tension was measured for CCCC[N+](C)([O-])CCCCCC[N+](C)([O-])CCCC (stereo not shown) [Synthesis Example 23, 16-(N,N-butylmethylamineoxyl)hexane] ?
Result string: 56.46
